Test system: PXR:RXRa (NR concentration 270 nM, RXRa partner concentration 90 nM)
Assay: PBM binding z-score (relative to random genomic background probes); higher = stronger binding; sequences stand for … in GC…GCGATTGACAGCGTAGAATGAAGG
QUANTITY MEASURED: PBM binding z-score
One number for each entry.

Recorded results for 6 sequences are shown here.
| SEQUENCE RECORD | PBM binding z-score |
| --- | --- |
| CGTCCAAGGTCAATGCTGGGTCAGTGAAAGCATT | 4.66 |
| CGTCCAACGTCAATGCTAGGTCAGTGAAAGCATT | 0.124 |
| GATAGCAGGCCATTTGGGTCACTCAATGACGGGC | 0.523 |
| TAGCCTAGGTCCGATCGGGCCAGTATACGCTATA | -1.01 |
| GCTAGTTGGTCAGTAAAAGGTCACATACCGGTCG | 4.88 |
| TCATATAGGTAATACCGGTGAAAGTCGGCATCTA | 0.488 |

Please report PBM binding z-score for every entry that follows.
1. CGAACTAGGTCAGAACATGACAGTGAAGGATGAT
2. TCTTGTAGATCAAGCAGGCTAAGAAAGCCTGAGT
3. CCGACTGGGGCAGGGTTACCATAACGCACAGCCA
4. ATCTCTAGGTAAAGTTCACTGAAAGATCGATAGA

1. 0.243
2. -0.424
3. 0.395
4. 3.54
